Target: T1, TCE-11 (anti-CD3 scFv H101A; anti-TROP2 wt)
T1 construct: scFv on the Fab heavy chain; also called TCE-11 (H101A)
Assay: competition ELISA, TCE on captured CD3
Where no end group is shown, it is not given here.
The following binders are listed with their measured pIC50 values.
Entry type: numeric. Quantity: pIC50, the -log10 of concentration in molar units.

VYCGPEFDESVGCA (cysteine pairing not given here; also: biotinylated, site not given here, mask peptide for the CD3 scFv) [Peptide-73] :: 5.53
VDCGPDGDESILCY (cysteine pairing not given here; also: biotinylated, site not given here, mask peptide for the CD3 scFv) [Peptide-71] :: 5.43
ASQCLGPEWEVCPY (cysteine pairing not given here; also: biotinylated, site not given here, mask peptide for the CD3 scFv) [Peptide-74] :: 5.95
VYCGPEFDESVGCM (cysteine pairing not given here; also: biotinylated, site not given here, mask peptide for the CD3 scFv) [Peptide-67] :: 5.55

Input line: Param item = GSQCLGPEWEVCPY (cysteine pairing not given here; also: biotinylated, site not given here, mask peptide for the CD3 scFv) [Peptide-66] ; retrieve measured pIC50.
Output line: 5.58
